target: Smo D473H mutant (Homo sapiens, UniProt Q99835, D473H); assay: Reporter assay of C3H10T1/2-Gli-Luc cells transfected with Smo D473H mutant, without SAG; conditions: C3H10T1/2 cells transfected with pLPCX-SMO-D473H, no SAG, 48 hr; read-out: Inhibition of C3H10T1/2-Gli-Luc-Smo-D473H [IC50
Sequence (Q99835 28-787 D473H): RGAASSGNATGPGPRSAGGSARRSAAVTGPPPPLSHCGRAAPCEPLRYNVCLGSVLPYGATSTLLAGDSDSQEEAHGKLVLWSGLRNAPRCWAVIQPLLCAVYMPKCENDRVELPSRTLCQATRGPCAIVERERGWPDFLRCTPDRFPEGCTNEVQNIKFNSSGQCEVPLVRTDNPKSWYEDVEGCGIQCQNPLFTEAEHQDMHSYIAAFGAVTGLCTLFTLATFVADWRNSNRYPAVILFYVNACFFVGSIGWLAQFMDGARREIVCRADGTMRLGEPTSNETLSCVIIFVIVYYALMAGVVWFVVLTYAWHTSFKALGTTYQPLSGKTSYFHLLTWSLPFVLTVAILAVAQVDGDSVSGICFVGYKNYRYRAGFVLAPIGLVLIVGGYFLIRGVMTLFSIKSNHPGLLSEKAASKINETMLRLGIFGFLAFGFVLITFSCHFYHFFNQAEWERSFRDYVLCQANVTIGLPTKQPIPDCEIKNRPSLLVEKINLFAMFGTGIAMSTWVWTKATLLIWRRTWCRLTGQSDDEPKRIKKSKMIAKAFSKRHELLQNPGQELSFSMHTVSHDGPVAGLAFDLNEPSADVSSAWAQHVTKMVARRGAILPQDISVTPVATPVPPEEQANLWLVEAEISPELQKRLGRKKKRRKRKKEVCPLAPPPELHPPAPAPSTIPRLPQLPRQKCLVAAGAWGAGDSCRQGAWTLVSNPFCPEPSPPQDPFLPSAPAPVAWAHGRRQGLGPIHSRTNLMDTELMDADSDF
pIC50: −log10 of the molar value.
pIC50 reference

Consider the reported pIC50 for these molecules:
CSc1cnc(Nc2ccc(C(=O)Nc3cc(CN4CCOCC4)ccc3C)cc2)nc1-c1ccc(F)cc1; 6.00 to 7.00
Cc1ccc(CN2CCOCC2)cc1NC(=O)c1ccc(Nc2ncc([S+](C)[O-])c(-c3ccc(OC(F)(F)F)cc3)n2)cc1 (stereo not shown); > 7.00
COc1cccc(C)c1NC(=O)c1ccc(Nc2ncc(SC)c(-c3cccnc3F)n2)cc1; 6.00 to 7.00
Cc1ccc(CN2CCOCC2)cc1NC(=O)c1ccc(Nc2ncc(N)c(-c3ccc(OC(F)(F)F)cc3)n2)cc1; > 7.00
CSc1cnc(Nc2ccc(C(=O)Nc3cc(CN4CCN(C)CC4)ccc3C)cc2)nc1-c1ccc(OC(F)(F)F)cc1; 6.00 to 7.00

Give the reported pIC50 for CSc1cnc(Nc2ccc(C(=O)Nc3ccccc3C)cc2)nc1-c1ccccc1 (system: Smo D473H mutant (Homo sapiens, UniProt Q99835, D473H)).
6.00 to 7.00

Give the reported pIC50 for CSc1cnc(Nc2ccc(C(=O)Nc3cc(CN4CCN(C)CC4)ccc3C)cc2)cc1-c1ccc(OC(F)(F)F)cc1 (system: Smo D473H mutant (Homo sapiens, UniProt Q99835, D473H)).
> 7.00

----------
biological target: Smo wild type (Homo sapiens, UniProt Q99835); assay: Reporter assay of C3H10T1/2-Gli-Luc cells transfected with wild-type Smo, without SAG; details: C3H10T1/2 cells transfected with pLPCX-SMO, no SAG, 48 hr; read-out: Inhibition of C3H10T1/2-Gli-Luc-Smo-WT [IC50
Sequence (Q99835 28-787): as the sequence (Q99835 28-787 D473H) above, with H446D counted along it
pIC50: −log10 of the molar value.
PROPERTY_LABEL: pIC50

Consider the reported pIC50 for these compounds:
COc1cccc(OC)c1NC(=O)c1ccc(Nc2ncc(SC)c(-c3cccnc3F)n2)c(F)c1; 6.00 to 7.00
CSc1cnc(Nc2ccc(C(=O)Nc3cc(CN4CCOCC4)ccc3C)cc2)cc1-c1ccc(F)cc1; > 7.00
CSc1cnc(Nc2ccc(C(=O)Nc3cc(CN4CCN(C)CC4)ccc3C)cc2)cc1-c1ccc(F)cc1; > 7.00
CSc1cnc(Nc2ccc(C(=O)Nc3cc(CN4CCOCC4)ccc3C)cc2)nc1-c1cnn(C)c1; 6.00 to 7.00
CSc1cnc(Nc2ccc(C(=O)Nc3c(C)cccc3C)cc2)nc1-c1ccc(F)cc1; 6.00 to 7.00
CSc1cnc(Nc2ccc(C(=O)Nc3c(C)cccc3C)cc2F)nc1-c1cccnc1F; 6.00 to 7.00
CSc1cnc(Nc2ccc(C(=O)Nc3ccc(C#N)cc3)cc2)nc1-c1cccnc1F; 6.00 to 7.00
COc1cnc(Nc2ccc(C(=O)Nc3cc(CN4CCN(C)CC4)ccc3C)cc2)nc1-c1ccc(OC(F)(F)F)cc1; > 7.00

Which pIC50 value belongs to CSc1cnc(Nc2ccc(C(=O)Nc3cc(CN4CCN(C)CC4)ccc3C)cc2)nc1-c1ccc(F)cc1 ?
> 7.00

Which pIC50 value belongs to CCN(CC)Cc1ccc(C)c(NC(=O)c2ccc(Nc3ncc(SC)c(-c4ccc(F)cc4)n3)c(F)c2)c1 ?
> 7.00

Which pIC50 value belongs to CSc1cnc(Nc2ccc(C(=O)Nc3cc(CN4CCN(C)CC4)ccc3C)cc2)nc1-c1ccc(C#N)cc1 ?
> 7.00

Which pIC50 value belongs to CCN(CC)Cc1ccc(C)c(NC(=O)c2ccc(Nc3ncc(SC)c(-c4ccc(F)cc4)n3)cc2)c1 ?
> 7.00

All figures here come from patent US10793542B2.
